Provide the reported IC50 of each item.
Molecular target: Neurogenic locus notch homolog protein 1 (Homo sapiens)
Sequence (P46531 whole entry, the tested form may be a part): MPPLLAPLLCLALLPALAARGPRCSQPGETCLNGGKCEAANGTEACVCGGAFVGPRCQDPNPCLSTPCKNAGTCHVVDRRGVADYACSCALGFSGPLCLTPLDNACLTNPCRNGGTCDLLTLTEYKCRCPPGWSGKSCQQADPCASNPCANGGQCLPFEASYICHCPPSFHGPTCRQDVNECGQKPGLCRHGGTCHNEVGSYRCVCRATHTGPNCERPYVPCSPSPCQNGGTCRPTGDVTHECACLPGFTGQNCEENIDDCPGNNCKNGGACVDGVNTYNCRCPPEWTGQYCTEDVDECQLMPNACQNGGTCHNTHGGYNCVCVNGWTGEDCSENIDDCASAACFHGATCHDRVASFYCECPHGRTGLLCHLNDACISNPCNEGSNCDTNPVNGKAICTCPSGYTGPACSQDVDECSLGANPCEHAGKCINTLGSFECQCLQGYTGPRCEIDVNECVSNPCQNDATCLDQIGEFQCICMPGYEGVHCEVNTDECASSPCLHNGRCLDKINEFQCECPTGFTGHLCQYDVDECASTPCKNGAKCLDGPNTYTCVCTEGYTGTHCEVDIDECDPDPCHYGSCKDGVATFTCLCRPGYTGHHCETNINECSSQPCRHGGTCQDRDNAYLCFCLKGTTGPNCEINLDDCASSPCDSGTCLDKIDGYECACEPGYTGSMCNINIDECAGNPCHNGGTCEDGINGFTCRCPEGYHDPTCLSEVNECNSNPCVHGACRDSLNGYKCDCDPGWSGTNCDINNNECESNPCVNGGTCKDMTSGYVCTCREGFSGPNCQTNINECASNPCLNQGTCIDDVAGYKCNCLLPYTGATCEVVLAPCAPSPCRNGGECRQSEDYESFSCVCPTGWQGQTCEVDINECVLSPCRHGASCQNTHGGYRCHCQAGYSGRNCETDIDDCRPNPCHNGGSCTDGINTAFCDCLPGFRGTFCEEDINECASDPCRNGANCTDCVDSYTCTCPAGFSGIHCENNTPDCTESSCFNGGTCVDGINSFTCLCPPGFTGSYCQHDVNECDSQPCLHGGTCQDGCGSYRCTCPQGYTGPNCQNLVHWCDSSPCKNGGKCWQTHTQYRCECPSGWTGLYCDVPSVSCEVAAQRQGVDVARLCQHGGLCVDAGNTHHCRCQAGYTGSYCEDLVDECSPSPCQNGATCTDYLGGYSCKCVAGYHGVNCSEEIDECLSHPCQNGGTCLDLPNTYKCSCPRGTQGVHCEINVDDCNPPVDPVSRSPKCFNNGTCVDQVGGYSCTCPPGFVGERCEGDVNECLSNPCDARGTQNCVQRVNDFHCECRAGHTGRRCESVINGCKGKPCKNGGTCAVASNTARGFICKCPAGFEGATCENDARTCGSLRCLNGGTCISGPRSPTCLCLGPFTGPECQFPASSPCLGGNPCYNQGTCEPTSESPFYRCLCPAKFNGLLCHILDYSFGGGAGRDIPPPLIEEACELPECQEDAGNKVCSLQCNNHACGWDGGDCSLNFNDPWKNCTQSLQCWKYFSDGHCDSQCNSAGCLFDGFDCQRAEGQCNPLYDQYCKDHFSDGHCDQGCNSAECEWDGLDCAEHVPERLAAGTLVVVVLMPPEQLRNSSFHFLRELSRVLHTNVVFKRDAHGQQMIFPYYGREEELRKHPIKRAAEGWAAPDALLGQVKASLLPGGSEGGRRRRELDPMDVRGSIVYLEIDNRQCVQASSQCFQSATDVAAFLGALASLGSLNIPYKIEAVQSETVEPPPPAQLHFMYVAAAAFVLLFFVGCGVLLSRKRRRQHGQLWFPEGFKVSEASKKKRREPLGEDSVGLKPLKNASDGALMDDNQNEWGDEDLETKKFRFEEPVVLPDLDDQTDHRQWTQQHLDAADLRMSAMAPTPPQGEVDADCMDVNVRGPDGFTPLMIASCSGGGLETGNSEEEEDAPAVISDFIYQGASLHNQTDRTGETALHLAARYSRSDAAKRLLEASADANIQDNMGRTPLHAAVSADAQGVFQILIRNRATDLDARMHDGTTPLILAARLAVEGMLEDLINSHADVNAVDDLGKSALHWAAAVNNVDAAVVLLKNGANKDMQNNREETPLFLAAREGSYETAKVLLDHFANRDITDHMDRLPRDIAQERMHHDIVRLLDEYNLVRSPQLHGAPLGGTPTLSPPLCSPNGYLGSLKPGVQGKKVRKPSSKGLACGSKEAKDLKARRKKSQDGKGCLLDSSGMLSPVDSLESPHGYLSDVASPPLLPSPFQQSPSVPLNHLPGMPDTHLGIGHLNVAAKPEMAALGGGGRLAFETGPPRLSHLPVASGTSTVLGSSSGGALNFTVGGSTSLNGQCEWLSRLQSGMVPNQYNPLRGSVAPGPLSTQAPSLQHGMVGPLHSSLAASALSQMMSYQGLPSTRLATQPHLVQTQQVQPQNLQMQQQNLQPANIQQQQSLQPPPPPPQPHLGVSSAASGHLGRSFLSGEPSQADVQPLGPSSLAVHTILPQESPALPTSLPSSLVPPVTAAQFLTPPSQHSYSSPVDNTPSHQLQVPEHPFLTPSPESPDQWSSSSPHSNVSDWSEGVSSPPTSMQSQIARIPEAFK
Experiment: Inhibition of Notch1 intracellular domain fragment transfected in human HeLa cells co-transfected with CBF1-PGL3 luciferase reporter vector by transactivation assay
Please answer using the number first and the unit second.

Q: So what's the measured IC50 for this one? COc1ccc([C@H](C(N)=O)[C@@H](CCC(F)(F)F)C(=O)N[C@H]2N=C(c3ccccc3)c3ccccc3N(C)C2=O)cc1
Ans: 9 nM

Q: So what's the measured IC50 for this one? NC(=O)[C@@H](c1cnoc1)[C@@H](CCC(F)(F)F)C(=O)N[C@H]1N=C(c2ccccc2)c2ccccc2NC1=O
Ans: 32 nM

Q: So what's the measured IC50 for this one? CN1C(=O)[C@@H](NC(=O)[C@H](CCC(F)(F)F)[C@@H](C(N)=O)c2cccc(S(C)(=O)=O)c2)N=C(c2ccccc2)c2ccccc21
Ans: 2060 nM

Q: So what's the measured IC50 for this one? CN1C(=O)[C@@H](NC(=O)[C@H](CCC(F)(F)F)[C@@H](C(N)=O)c2ccc(F)c(F)c2)N=C(c2ccccc2)c2ccccc21
Ans: 2 nM

Q: So what's the measured IC50 for this one? CN1C(=O)[C@@H](NC(=O)[C@H](CCC(F)(F)F)[C@@H](C(N)=O)c2cccc(OC(F)(F)F)c2)N=C(c2ccccc2)c2ccccc21
Ans: 3 nM

Q: So what's the measured IC50 for this one? CCC(CC)[C@H](C(N)=O)[C@@H](CCC(F)(F)F)C(=O)N[C@H]1N=C(c2ccccc2)c2ccccc2N(C)C1=O
Ans: 1 nM

Q: So what's the measured IC50 for this one? CN1C(=O)[C@@H](NC(=O)[C@H](CCC(F)(F)F)[C@@H](C(N)=O)c2cccc(C(F)(F)F)c2)N=C(c2ccccc2)c2ccccc21
Ans: 1 nM

###

Target: Neurogenic locus notch homolog protein 1 (Homo sapiens)
Assay: Inhibition of Notch1 intracellular domain fragment transfected in human HeLa cells co-transfected with CBF1-PGL3 luciferase reporter vector by transactivation assay
measured_quantity: IC50 (nM)
# output: bare number, implied unit nM

Q: So what's the measured IC50 for this one? Cc1cc([C@H](C(N)=O)[C@@H](CCC(F)(F)F)C(=O)N[C@H]2N=C(c3ccccc3)c3ccccc3N(C)C2=O)no1
Ans: 54

Q: So what's the measured IC50 for this one? CCC[C@H](C(N)=O)[C@@H](CC(F)(F)F)C(=O)N[C@H]1N=C(c2ccccc2)c2ccccc2N(C)C1=O
Ans: 13

Q: So what's the measured IC50 for this one? Cc1nocc1[C@H](C(N)=O)[C@@H](CCC(F)(F)F)C(=O)N[C@H]1N=C(c2ccccc2)c2ccccc2N(C)C1=O
Ans: 3

Q: So what's the measured IC50 for this one? NC(=O)[C@@H](c1ncon1)[C@@H](CCC(F)(F)F)C(=O)N[C@H]1N=C(c2ccccc2)c2ccccc2NC1=O
Ans: 1190

Q: So what's the measured IC50 for this one? CN1C(=O)[C@@H](NC(=O)[C@H](CCC(F)(F)F)[C@@H](C(N)=O)c2ccc(F)cc2)N=C(c2ccccc2)c2ccccc21
Ans: 2

Q: So what's the measured IC50 for this one? CCC(CC)[C@H](C(N)=O)[C@@H](CC(C)(C)C)C(=O)N[C@H]1N=C(c2ccccc2)c2ccccc2N(C)C1=O
Ans: 3

Q: So what's the measured IC50 for this one? Cc1cccc([C@H](C(N)=O)[C@@H](CCC(F)(F)F)C(=O)N[C@H]2N=C(c3ccccc3)c3ccccc3N(C)C2=O)c1
Ans: 3

Q: So what's the measured IC50 for this one? NC(=O)[C@@H](c1cocn1)[C@@H](CCC(F)(F)F)C(=O)N[C@H]1N=C(c2ccccc2)c2ccccc2NC1=O
Ans: 231
